Target: SMYD3 (Homo sapiens)
Sequence (Q9H7B4 1-428): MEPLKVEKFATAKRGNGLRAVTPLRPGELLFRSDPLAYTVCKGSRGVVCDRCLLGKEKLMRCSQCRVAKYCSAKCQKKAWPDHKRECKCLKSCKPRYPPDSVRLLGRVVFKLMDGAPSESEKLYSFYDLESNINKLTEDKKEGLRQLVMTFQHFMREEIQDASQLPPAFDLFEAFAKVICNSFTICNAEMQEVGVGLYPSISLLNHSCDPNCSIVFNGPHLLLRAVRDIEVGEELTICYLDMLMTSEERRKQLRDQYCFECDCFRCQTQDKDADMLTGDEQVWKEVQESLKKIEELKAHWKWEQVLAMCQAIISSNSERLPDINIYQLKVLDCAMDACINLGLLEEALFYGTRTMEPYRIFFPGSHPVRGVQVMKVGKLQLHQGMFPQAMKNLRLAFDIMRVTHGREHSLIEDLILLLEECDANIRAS
Assay: SMYD3 biochemical assay (MTase-Glo, MAP3K2 peptide substrate)
Conditions: Table 3; MTase assay, MAP3K2 peptide substrate; read-out: IC50
OBSERVED PROPERTY: pIC50
Numbers only, as −log10 of the molar value.

Example compounds with recorded pIC50:
CCCOC(=O)N1CCN(C(=O)c2ccc3c(Cl)c4c(nc3c2)CC(c2ccncc2)CC4)CC1 (stereo not shown) [A058]	6.72
CCCOC(=O)N1CCN(C(=O)c2ccc3c(Cl)cc(-c4cccc(N)c4)nc3c2)CC1 [B077]	6.92

Dear colleague, could you please provide pIC50 for the compounds listed below?
1. CCCOC(=O)N1CCN(C(=O)c2ccc3c(Cl)c4c(nc3c2)CC(c2cc(C)ccn2)CC4)C[C@H]1C (stereo partly shown) [A133]
2. Cc1cc(C(=O)N2C3CCCC2CN(C(=O)c2ccc4c(Cl)c5c(nc4c2)CCCC5)C3)n[nH]1 [A040]
3. CCCOC(=O)N1CCN(C(=O)c2ccc3c(Cl)cc(-c4ccn(C)c4)nc3c2)C[C@@H]1C [B193]
4. CCCOC(=O)N1CCN(C(=O)c2ccc3c(Cl)cc(-c4ccc(OC)c(CN(C)C)c4)nc3c2)CC1 [B104]
5. CCCOC(=O)N1CCN(C(=O)c2ccc3c(Cl)c(C)c(-c4ccc(Cl)cc4)nc3c2)CC1 [B021]

1: 6.92; 2: 4.96; 3: 7.22; 4: 6.92; 5: 5.89
